Attribute: cytotoxicity at 10 µM
test: Toxicity liver stage against HepG2, at 10uM
Assay type: cell-based
Parameters: test concentration 10 uM, cell line HepG2-A16-CD81EGFP
details: human, HepG2-A16-CD81EGFP cells; read-out: INHIBITION
Write the answer as a number in %, unit excluded.

Illustrative cases are given below, each with its answer.
[
  {
    "compound": "COCCNS(=O)(=O)c1ccc2c(c1)CCN(C(=O)c1cncn1C)C2",
    "recorded-metric": "cytotoxicity at 10 µM",
    "display-unit": "%",
    "recorded-measurement": 9.65
  },
  {
    "compound": "CCCn1cc(C(=O)N2CCCC(c3nccn3CCOC)C2)c(C)n1 (stereo unspecified)",
    "recorded-metric": "cytotoxicity at 10 µM",
    "display-unit": "%",
    "recorded-measurement": 0.00455
  },
  {
    "compound": "CC[C@@]1(O)CCN(c2ncc(Cl)cc2C(F)(F)F)C[C@H]1O",
    "recorded-metric": "cytotoxicity at 10 µM",
    "display-unit": "%",
    "recorded-measurement": 11.6
  },
  {
    "compound": "COc1ccc(C)cc1CCNS(C)(=O)=O",
    "recorded-metric": "cytotoxicity at 10 µM",
    "display-unit": "%",
    "recorded-measurement": 2.39
  },
  {
    "compound": "Cn1nc(CC(C)(C)C)cc1NC(=O)c1ccc2[nH]nnc2c1",
    "recorded-metric": "cytotoxicity at 10 µM",
    "display-unit": "%",
    "recorded-measurement": 1.25
  }
]

We next turn to a different compound, shown below.
Please fill in: cytotoxicity at 10 µM reported for CN(C)c1cc(CNC(=O)c2c(F)cccc2F)ccn1 = -18.1
